Test system: tet operator sequence
Assay: β-galactosidase activity of a tetracycline-regulated promoter in transformed E. coli with revTetR, in the presence and absence of anhydrotetracycline (atc)
Assay type: cell-based, Escherichia coli
Details: RevTetR isolate cultured in the presence of anhydrotetracycline (ATC)
property: β-Galactosidase Activity, Cultured With ATC
Give your answer as a number; write no unit.

Example entries begin here.
molecule	recordedValue
TetRrev28/26: revTetR(BD) L14T N18Y G21G I22F (protein, Modified tetracycline repressor, revTetR(BD) L14T N18Y G21G I22F) MSRLDKSKVINSATELLYEVGFEGLTTRKLAQKLGVEQPTLYWHVKNKRALLDALAVEILARHHDYSLPAAGESWQSFLRNNAMSFRRALLRYRDGAKVHLGTRPDEKQYDTVETQLRFMTENGFSLRDGLYAISAVSHFTLGAVLEQQEHTAALTDRPAAPDENLPPLLREALQIMDSDDGEQAFLHGLESLIRGFEVQLTALLQIV	3.8006
TetRrev28/40: revTetR(BD) L14S N18Y I22F L25L (protein, Modified tetracycline repressor, revTetR(BD) L14S N18Y I22F L25L) MSRLDKSKVINSASELLYEVGFEGLTTRKLAQKLGVEQPTLYWHVKNKRALLDALAVEILARHHDYSLPAAGESWQSFLRNNAMSFRRALLRYRDGAKVHLGTRPDEKQYDTVETQLRFMTENGFSLRDGLYAISAVSHFTLGAVLEQQEHTAALTDRPAAPDENLPPLLREALQIMDSDDGEQAFLHGLESLIRGFEVQLTALLQIV	3.4834
TetRrevAF3/8: revTetR(BD) E15V L16L N18H E19D V20D R94P D95H H100N (protein, Modified tetracycline repressor, revTetR(BD) E15V L16L N18H E19D V20D R94P D95H H100N) MSRLDKSKVINSALVLLHDDGIEGLTTRKLAQKLGVEQPTLYWHVKNKRALLDALAVEILARHHDYSLPAAGESWQSFLRNNAMSFRRALLRYPHGAKVNLGTRPDEKQYDTVETQLRFMTENGFSLRDGLYAISAVSHFTLGAVLEQQEHTAALTDRPAAPDENLPPLLREALQIMDSDDGEQAFLHGLESLIRGFEVQLTALLQIV	2.7257
TetRrevAF2/15: revTetR(BD) V20G I22N R49Q A50T (protein, Modified tetracycline repressor, revTetR(BD) V20G I22N R49Q A50T) MSRLDKSKVINSALELLNEGGNEGLTTRKLAQKLGVEQPTLYWHVKNKQTLLDALAVEILARHHDYSLPAAGESWQSFLRNNAMSFRRALLRYRDGAKVHLGTRPDEKQYDTVETQLRFMTENGFSLRDGLYAISAVSHFTLGAVLEQQEHTAALTDRPAAPDENLPPLLREALQIMDSDDGEQAFLHGLESLIRGFEVQLTALLQIV	2.828

# next molecule below
input: Report β-Galactosidase Activity, Cultured With ATC for TetRrev6-37-1: revTetR(BD) G96R A97S V99L (protein, Modified tetracycline repressor, revTetR(BD) G96R A97S V99L) MSRLDKSKVINSALELLNEVGIEGLTTRKLAQKLGVEQPTLYWHVKNKRALLDALAVEILARHHDYSLPAAGESWQSFLRNNAMSFRRALLRYRDRSKLHLGTRPDEKQYDTVETQLRFMTENGFSLRDGLYAISAVSHFTLGAVLEQQEHTAALTDRPAAPDENLPPLLREALQIMDSDDGEQAFLHGLESLIRGFEVQLTALLQIV please.
output: 20.04
